Values were extracted from patent US12180192B2.

Target: THR alpha (Homo sapiens)
Construct: expressed in transfected cells; host or cells: HEK293T (ATCC CRL-3216)
Sequence (P10827 1-410 isoform P10827-2): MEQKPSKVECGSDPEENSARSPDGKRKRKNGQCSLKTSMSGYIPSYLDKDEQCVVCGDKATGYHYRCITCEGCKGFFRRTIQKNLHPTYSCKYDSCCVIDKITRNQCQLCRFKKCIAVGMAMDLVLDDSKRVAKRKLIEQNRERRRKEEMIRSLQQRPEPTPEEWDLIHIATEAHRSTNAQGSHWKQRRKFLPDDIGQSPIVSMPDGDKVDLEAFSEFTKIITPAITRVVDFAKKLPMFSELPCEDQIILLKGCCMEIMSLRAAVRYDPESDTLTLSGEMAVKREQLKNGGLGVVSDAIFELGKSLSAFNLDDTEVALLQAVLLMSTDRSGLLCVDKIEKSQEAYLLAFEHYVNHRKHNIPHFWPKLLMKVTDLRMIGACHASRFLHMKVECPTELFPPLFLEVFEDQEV
Sequence (P19793 whole entry partner): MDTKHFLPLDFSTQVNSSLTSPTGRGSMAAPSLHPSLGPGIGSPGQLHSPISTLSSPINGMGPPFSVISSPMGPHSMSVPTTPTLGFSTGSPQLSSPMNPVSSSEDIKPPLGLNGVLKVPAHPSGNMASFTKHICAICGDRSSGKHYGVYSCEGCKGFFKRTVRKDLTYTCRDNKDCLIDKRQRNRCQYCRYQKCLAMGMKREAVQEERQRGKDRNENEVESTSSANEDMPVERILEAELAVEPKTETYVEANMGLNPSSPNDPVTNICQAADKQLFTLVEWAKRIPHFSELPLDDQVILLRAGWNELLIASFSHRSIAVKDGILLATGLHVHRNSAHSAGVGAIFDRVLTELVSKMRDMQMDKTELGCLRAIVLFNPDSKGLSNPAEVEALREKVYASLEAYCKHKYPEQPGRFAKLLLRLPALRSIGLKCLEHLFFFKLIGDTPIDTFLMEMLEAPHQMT
Assay: HEK293T THR alpha/RXR luciferase reporter assay (Assay 2)
Type: cell-based
Settings: Table 4; THR-alpha; Assay 2; read-out: Activity category Assay 2 (EC50, THR-alpha agonist activity)
pEC50: −log10 of the molar value.
quantityName: pEC50

Guide cases for pEC50, answers given:
Cc1ccc(-c2cc(=O)[nH]nc2Oc2c(Cl)cc(-n3nc(N)c(=O)[nH]c3=O)cc2Cl)cc1C	< 5.00
CC1(C)C(=O)Nc2nnc(Oc3c(Cl)cc(-n4nc(C#N)c(=O)[nH]c4=O)cc3Cl)cc21	< 5.00
CC1(C)CC(c2cc(Oc3c(Cl)cc(-n4nc(N)c(=O)[nH]c4=O)cc3Cl)n[nH]c2=O)C1	5.00 to 6.00

Data request: Name the reported pEC50 value associated with the compound CC(C)Cc1c[nH]c2ccc(Oc3c(Cl)cc(-n4nc(C#N)c(=O)[nH]c4=O)cc3Cl)cc12
Data returned: 6.00 to 6.60

Data request: Name the reported pEC50 value associated with the compound N#CC1CCC1c1cc(Oc2c(Cl)cc(-n3nc(N)c(=O)[nH]c3=O)cc2Cl)n[nH]c1=O (centres unmarked)
Data returned: < 5.00

Data request: Name the reported pEC50 value associated with the compound Cc1cccc(-c2cc(Oc3c(Cl)cc(-n4nc(N)c(=O)[nH]c4=O)cc3Cl)n[nH]c2=O)c1
Data returned: 6.60 to 7.30

Data request: Name the reported pEC50 value associated with the compound Cc1cc(-n2ncc(=O)[nH]c2=O)cc(C)c1Cc1ccc2c(c1)C1(CC1)C(=O)N2
Data returned: > 7.30

Data request: Name the reported pEC50 value associated with the compound Nc1nn(-c2cc(Cl)c(Oc3ccc4c(c3)C3(CC3)C(=O)N4)c(Cl)c2)c(=O)[nH]c1=O
Data returned: > 7.30
